Ref: paper PMC12040169

protocol.text: in vitro
details: human, hela cells, % viability
assay.metric: viability at 28.5 h, 10 µM
Write the quantity with the unit trailing the number.

O=C(O)CCC(=O)N1CCN(Cc2ccc(Cl)cc2)CC1 [CBK286852]: 90%
CCn1cc(CN2CCCN(C(=O)c3cn4ccccc4n3)CC2)cn1 [CBK304784]: 98.3%
Cc1cc2c(cc1C)NC(CC(=O)Nc1ccc(N(C)C)cc1)C(=O)N2 (centres unmarked) [CBK265595]: 85.8%
COc1cncc(-c2cc(Nc3ccc(OC)c(OC)c3)ncn2)c1 [CBK090824]: 92%
Cc1ccc(CN[C@@H]2COC[C@H]2Cc2cc(C)no2)cc1 [CBK283030]: 106%
CC(C)(C)OC(=O)N1CCCN(Cc2nnc(-c3ccco3)o2)CC1 [CBK305271]: 103%

// for each molecule in input: emit viability at 28.5 h, 10 µM
1. O=C(Cn1nnc2ccccc2c1=O)N1CCCC(C(F)(F)F)C1 (centres unmarked) [CBK305900]
2. CCOC(=O)C(C)n1nc(C)n2c(cc3sccc32)c1=O (centres unmarked) [CBK283333]
3. CS(=O)(=O)c1ccc(-c2ccc(CN3CCN(C(=O)Cc4ccc(F)cc4F)CC3)cn2)cc1 [CBK162618T]
4. Cc1c(NC(=O)Nc2ccc(Cl)cc2)sc(=S)n1C [CBK027495]
5. COc1ccc(Nc2cccc(-c3cnc(OC)nc3OC)n2)cc1 [CBK036825]
6. CCn1cc(-c2cncn2CC(C)N2CCC(C)CC2)cn1 (centres unmarked) [CBK281565]
7. Cc1ccc(OC(C)C(=O)Nc2ccccc2C(=O)N2CCN(C)CC2)cc1 (centres unmarked) [CBK269802]
8. CC(C)(C)OC(=O)N1CCC[C@H]1C(=O)c1nccs1 [CBK284282]

// result
1. 80.5%
2. 67%
3. 122%
4. 93.4%
5. 89.6%
6. 91.7%
7. 88.6%
8. 108%

* * *

protocol.text: in vitro
details: human, hela cells, % viability
Doc: threshold 90% (exclusive). Items with viability at 28.5 h, 10 µM beneath it return 1; others return 0.

Check out these entries, answers already filled in.
Cn1cc(C(CC(=O)O)C(=O)O)c2ccccc21 (stereo not shown): 0
CC(C)c1noc(N2CCC(Oc3ccc(-c4ccc(S(C)(=O)=O)cc4)cn3)CC2)n1: 1
COc1ccc(C2c3cc(OC)c(OC)cc3CC(=O)N2c2ccc(C(=O)O)cc2)cc1OC (stereo not shown): 0
CS(=O)(=O)c1ccc(Cn2cc(CN3CCC(Sc4ccccn4)CC3)nn2)cc1: 0
CCCC/C=C/c1cn2ccnc2c(N2CCN(c3ccccn3)CC2)n1: 0

// query Report whether reported viability at 28.5 h, 10 µM is lower than 90% (strictly) for "O=C(NCc1cccs1)c1ccc2[nH]ccc2c1"
// result 1

// query Report whether reported viability at 28.5 h, 10 µM is lower than 90% (strictly) for "Cc1ccc(OCC(=O)Nc2sc(C)c(C)c2C#N)c([N+](=O)[O-])c1"
// result 0

// query Report whether reported viability at 28.5 h, 10 µM is lower than 90% (strictly) for "Cc1ccc(NC(=O)Cc2cn(C)c3ccccc23)c(C)n1"
// result 1

// query Report whether reported viability at 28.5 h, 10 µM is lower than 90% (strictly) for "CC(=O)c1ccc(C(=O)N2CCC3(CC2)CC(=O)c2ccc4ccccc4c2O3)cc1"
// result 0
